# Test system: AR mRNA
# assay.procedure: Dose-dependent antisense inhibition of human AR in HuVEC cells (electroporation, qRT-PCR RTS3559, IC50)
# Assay type: cell-based
# condition.context: Table 36; 46.9 nM, HuVEC, electroporation, approximately 16 hours
Oligonucleotides are written 5' to 3', each unit as a sugar letter and its base; * is a phosphorothioate linkage, no mark a phosphodiester; rarer units and linkages stand in square brackets, end groups in braces. Plain capitals give the bases only. k = constrained ethyl (cEt); [5mC] = 5-methylcytosine; d = 2'-deoxy (DNA)
Mark 0 for percent inhibition of AR, 46.9 nM values under 6%, and 1 for everything at or above.

| substance | classification |
| --- | --- |
| 584468 (k[5mC]*kA*kT*dT*dG*dT*dA*d[5mC]*dT*dA*dT*dG*d[5mC]*k[5mC]*kA*kG) [compound 584468] | 1 |
| 584469 (kT*kT*kT*dG*dG*dT*dA*dA*d[5mC]*dA*dT*dT*dA*kG*kG*k[5mC]; antisense) [compound 584469] | 1 |
| 584165 (kT*k[5mC]*kA*dA*dT*d[5mC]*dT*dA*dG*dA*dT*dA*d[5mC]*k[5mC]*kA*kT; antisense) [compound 584165] | 1 |
| 584233 (kG*kG*kA*dT*dT*d[5mC]*dT*d[5mC]*dT*dA*d[5mC]*dA*d[5mC]*kA*k[5mC]*kA; antisense) [compound 584233] | 0 |
| 584495 (kA*kT*kG*dG*dT*dT*dG*dT*d[5mC]*d[5mC]*dT*dG*dT*kA*k[5mC]*kA; antisense) [compound 584495] | 0 |
| 584361 (k[5mC]*kT*kT*d[5mC]*dA*dT*dT*dG*d[5mC]*dA*dG*dG*dT*k[5mC]*kT*kG; antisense) [compound 584361] | 0 |
| 584263 (kT*kA*kG*dG*dG*dT*dT*dT*dG*dG*dT*d[5mC]*dA*kG*kA*kA; antisense) [compound 584263] | 1 |

* * *

# Tested on: LMR20 cells
# assay.procedure: Proliferation of MDV3100-resistant LMR20 cells (MTT; with R1881 or DHT)
# Assay type: cell-based, human
# condition.context: CSS + R1881, ASO 5.0 μM, 5 days
# Percent inhibition of LMR20 cell proliferation per record follows
reported.property: Percent inhibition of LMR20 cell proliferation (%)

| biopolymer.sequence | unit.spec | recorded.result |
| --- | --- | --- |
| ACCAAGTTTCTTCAGC (LNA gapmer, phosphorothioate backbone, further chemistry not given here) [ISIS 554221, 3-10-3 LNA gapmer, phosphorothioate backbone, targeted to exon 4 of AR; benchmark, reference compound] | % | 54 |
| TGATTTAATGGTTGCA [ISIS 569236] (cEt/MOE gapmer chemistry, further chemistry not given here) [targets intron 1] | % | 61 |
| TTGATTTAATGGTTGC [ISIS 560131] (MOE and (S)-cEt gapmer chemistry, further chemistry not given here) [targets intron 1] | % | 70 |
| GTTGATTTAATGGTTG (all phosphorothioate, sugars by position not given here; further chemistry not fully specified) [ISIS 549458] | % | 74 |

* * *

# System: AR mRNA
# assay.procedure: Dose-dependent antisense inhibition of human AR in HuVEC cells (electroporation, qRT-PCR RTS3559, IC50)
# Format: cell-based
# condition.context: 500.0 nM; HuVEC, ~16 h; Table 14
Oligonucleotides are written 5' to 3', each unit as a sugar letter and its base; * is a phosphorothioate linkage, no mark a phosphodiester; rarer units and linkages stand in square brackets, end groups in braces. Plain capitals give the bases only. e = 2'-O-(2-methoxyethyl) (MOE); k = constrained ethyl (cEt); [5mC] = 5-methylcytosine; d = 2'-deoxy (DNA)
Measured percent inhibition of AR by item
reported.property: percent inhibition of AR (%)

| substance | system.name | reported.property | unit.spec | recorded.result |
| --- | --- | --- | --- | --- |
| 569229 (antisense eG*eT*kT*kG*kA*dT*dT*dT*dA*dA*dT*dG*kG*kT*kT*eG) [compound 569229] | AR mRNA | percent inhibition of AR | % | 74 |
| 560133 (antisense kA*kT*kG*dG*dT*dT*dG*dA*dT*dT*dT*dA*kA*kT*kG*eG) [compound 560133] | AR mRNA | percent inhibition of AR | % | 58 |
| 549458 (kG*kT*kT*dG*dA*dT*dT*dT*dA*dA*dT*dG*dG*kT*kT*kG) [compound 549458] | AR mRNA | percent inhibition of AR | % | 74 |
| 569220 (antisense eA*kT*kG*kG*dT*dT*dG*dA*dT*dT*dT*dA*kA*kT*kG*eG) [compound 569220] | AR mRNA | percent inhibition of AR | % | 59 |
| 549372 (kA*kA*kG*dT*dT*dG*dT*dA*dG*dT*dA*dG*dT*k[5mC]*kG*k[5mC]) [compound 549372] | AR mRNA | percent inhibition of AR | % | 61 |
| 560132 (antisense kG*kT*kT*dG*dA*dT*dT*dT*dA*dA*dT*dG*kG*kT*kT*eG) [compound 560132] | AR mRNA | percent inhibition of AR | % | 65 |
| 569223 (antisense eG*eT*kT*kG*kA*dT*dT*dT*dA*dA*dT*dG*dG*kT*kT*kG) [compound 569223] | AR mRNA | percent inhibition of AR | % | 73 |
| 569227 (antisense eT*eG*kA*kT*kT*dT*dA*dA*dT*dG*dG*dT*kT*kG*k[5mC]*eA) [compound 569227] | AR mRNA | percent inhibition of AR | % | 61 |
| 569215 (antisense kT*kG*kG*dT*dT*dG*dA*dT*dT*dT*dA*dA*kT*kG*kG*eT) [compound 569215] | AR mRNA | percent inhibition of AR | % | 71 |
| 569238 (antisense eG*kT*kT*kG*dA*dT*dT*dT*dA*dA*dT*kG*kG*kT*eT*eG) [compound 569238] | AR mRNA | percent inhibition of AR | % | 71 |
